- System: Staphylococcus aureus
- experiment-summary: microbe, parasite or virus in culture
assay-metric: MIC (µg/mL)
Record the value in µg/mL, omitting the unit from your answer.

The examples below pair each entry with its known result.
CC1(C)S[C@@H]2[C@H](NC(=O)Cc3ccccc3)C(=O)N2[C@H]1C(=O)O [PENICILLIN G]; 0.39
CC(=O)N1N=C(c2ccc(Br)cc2)CC1c1cc(Cl)ccc1Oc1c([N+](=O)[O-])cc(C(F)(F)F)cc1[N+](=O)[O-] (centres undefined); 3.12
CC(=O)N1N=C(c2ccc(C)cc2)CC1c1cc(Cl)ccc1Oc1c([N+](=O)[O-])cc(C(F)(F)F)cc1[N+](=O)[O-] (centres undefined); 0.39

Next, consider the following compound.
Query block: Return value of MIC for input NC[C@H]1O[C@H](O[C@H]2[C@H](O)[C@@H](O[C@H]3O[C@H](CO)[C@@H](O)[C@H](N)[C@H]3O)[C@H](N)C[C@@H]2N)[C@H](N)[C@@H](O)[C@@H]1O [BEKANAMYCIN] , no commentary.
Result block: 1.56
